TARGET: human ether-à-go-go-related gene (hERG) potassium channel (human, UniProt Q12809);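 further: peak tail current of the secondary pulse compared with the same well before compound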
Sequence (Q12809 whole entry, looked up): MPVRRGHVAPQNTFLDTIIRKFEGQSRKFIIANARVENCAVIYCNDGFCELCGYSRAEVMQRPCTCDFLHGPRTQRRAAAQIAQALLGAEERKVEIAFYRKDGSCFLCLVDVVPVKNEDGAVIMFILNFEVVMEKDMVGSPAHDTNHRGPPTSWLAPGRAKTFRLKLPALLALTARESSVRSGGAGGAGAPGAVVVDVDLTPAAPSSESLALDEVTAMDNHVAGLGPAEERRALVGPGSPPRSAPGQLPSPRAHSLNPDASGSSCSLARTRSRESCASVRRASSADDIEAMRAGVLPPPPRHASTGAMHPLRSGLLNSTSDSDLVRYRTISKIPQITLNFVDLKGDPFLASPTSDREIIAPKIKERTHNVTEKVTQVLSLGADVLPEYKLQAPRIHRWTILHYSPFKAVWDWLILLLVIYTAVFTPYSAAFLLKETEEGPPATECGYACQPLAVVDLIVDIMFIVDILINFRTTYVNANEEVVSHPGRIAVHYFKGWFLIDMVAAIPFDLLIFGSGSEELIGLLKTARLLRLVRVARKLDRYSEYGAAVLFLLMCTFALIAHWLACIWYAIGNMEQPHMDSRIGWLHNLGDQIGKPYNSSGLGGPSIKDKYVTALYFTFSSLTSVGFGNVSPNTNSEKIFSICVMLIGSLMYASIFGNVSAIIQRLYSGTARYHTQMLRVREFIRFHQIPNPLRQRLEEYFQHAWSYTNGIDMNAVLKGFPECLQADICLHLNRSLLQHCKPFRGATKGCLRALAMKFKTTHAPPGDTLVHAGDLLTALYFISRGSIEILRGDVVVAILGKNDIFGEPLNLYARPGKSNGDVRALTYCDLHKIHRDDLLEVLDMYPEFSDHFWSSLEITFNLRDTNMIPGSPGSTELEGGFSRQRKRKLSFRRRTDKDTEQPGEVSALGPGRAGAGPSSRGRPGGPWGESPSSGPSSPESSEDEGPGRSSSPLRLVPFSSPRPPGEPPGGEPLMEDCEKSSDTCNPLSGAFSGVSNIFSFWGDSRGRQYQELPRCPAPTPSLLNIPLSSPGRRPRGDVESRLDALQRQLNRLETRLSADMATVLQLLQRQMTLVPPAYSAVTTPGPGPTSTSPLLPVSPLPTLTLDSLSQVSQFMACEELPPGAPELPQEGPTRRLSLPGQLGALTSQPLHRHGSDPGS
ASSAY: primary screen, population patch clamp on CHO cells stably expressing hERG; higher = less effect of the substance
In all, about 310,000 compounds went through this assay and about 14,000 (4.5%) showed an effect of 50% or more. Effects have a minus sign here. Shown is part of a subset that was picked to be rich in strong results.
MEASURED METRIC: hERG current change (%, negative = inhibition) at 10uM (%)
One number for each entry, in %.

// for each compound below, give its hERG current change (%, negative = inhibition) at 10uM
1. CCCC(C)NC(=O)C1CCN(S(=O)(=O)c2ccccc2)CC1 (centres unmarked)
2. CC(C)(C)OC(=O)NNC(=O)NC12CC3CC(CC(C3)C1)C2
3. COCCn1nnnc1C(C(C)C)N(Cc1cccnc1)Cc1cc2cc(OC)ccc2[nH]c1=O (centres unmarked)

1. -12
2. -4.97
3. -29.3

====

TARGET: human ether-à-go-go-related gene (hERG) potassium channel (human, UniProt Q12809);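 further: peak tail current of the secondary pulse compared with the same well before compound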
ASSAY: primary screen, population patch clamp on CHO cells stably expressing hERG; higher = less effect of the substance
Out of some 310,000 compounds screened, about 14,000 (4.5%) showed an effect of 50% or more. The effect is printed as a negative number. Many of the other results were omitted from the sample, so strong results are more common in it than they were.
MEASURED METRIC: hERG current change (%, negative = inhibition) at 10uM (%)
Numbers only, in %.

# COMPOUND, OBSERVED VALUE
records = [
    ("N=c1c(-c2nc3ccccc3[nH]2)cc(C(=O)c2ccco2)nn1-c1ccccc1", -59.5),
    ("COc1ccc(CNC(=O)CN(Cc2cccs2)C(=O)CCC(=O)Nc2ccccn2)cc1", -41.1),
    ("COc1ccc(CN(CC(=O)NCc2ccccc2)C(=O)CCC(=O)Nc2cc(C)ccn2)cc1", -17.2),
    ("COc1ccc(CNC(=O)CN(Cc2ccccc2)C(=O)CCC(=O)Nc2ccccn2)cc1", -55.9),
    ("CNC(C)C(=O)NC(C(=O)N1CCCC1C(=O)NNc1ccccc1)C(C)C.O=CO (stereo not shown)", 5.01),
    ("CSCC[C@H](NC(=O)c1cccs1)C(=O)N1CCC2(CC1)NCCc1[nH]cnc12", 10.2),
]

Take each entry in turn and give its hERG current change (%, negative = inhibition) at 10uM.
1. CC(C)C(C(=O)NCC1CCCO1)N(Cc1ccccc1)C(=O)CNS(=O)(=O)c1ccccc1 (stereo not shown)
2. CCOc1ccc2[nH]c3c(NCCO)ncnc3c2c1
3. O=C(c1ccccc1Cl)c1c(O)c2ccccc2oc1=O
4. N=c1c(-c2nc3ccccc3[nH]2)cc(C(=O)c2cccs2)nn1-c1ccc(Cl)cc1

1: 18.4; 2: 23.1; 3: -3.19; 4: 8.51

Please look at the items below and tell me hERG current change (%, negative = inhibition) at 10uM for each one, in order.
1. COc1ccc2[nH]c3c(NCc4ccco4)ncnc3c2c1
2. CN(C)S(=O)(=O)c1cccc(C(=O)Nc2ccc3c(c2)CCC3)c1
3. COc1ccc2[nH]c3c(NCCCOC(C)C)ncnc3c2c1
4. O=C(Nc1cccnc1)c1cc(-c2ccc(Br)cc2)nc2ccccc12
5. O=C(CN(Cc1ccc(F)cc1)C(=O)CCC(=O)Nc1nccs1)NCc1ccccc1
6. O=C(CN(Cc1ccccc1)C(=O)CCC(=O)Nc1nccs1)NCc1ccc(F)cc1

-18.1
-21.9
9.68
-2.53
-35.6
-1.38
